Catalogue of microsomal CLint readings, one per entry.
# Assay details: Metabolic stability in human liver microsomes assessed as intrinsic clearance
# Format: ADME, Microsome
# Condition parameters: read-out: CLH

- Structure as smiles: "Nc1nonc1-c1nc2cc(F)ccc2n1Cc1ccncc1"
  Qualifier operator: "="
  microsomal CLint (µL/min/mg): 19
- Structure as smiles: "Nc1nonc1-c1nc2cccc(F)c2n1Cc1ccncc1"
  Qualifier operator: "="
  microsomal CLint (µL/min/mg): 14
- Structure as smiles: "Nc1nonc1-c1nc2cccc(F)c2n1Cc1cccnn1"
  Qualifier operator: "<"
  microsomal CLint (µL/min/mg): 9.6
- Structure as smiles: "Nc1nonc1-c1nc2cccc(F)c2n1Cc1ccncn1"
  Qualifier operator: "="
  microsomal CLint (µL/min/mg): 10
- Structure as smiles: "Nc1nonc1-c1nc2cccc(F)c2n1Cc1ccc(C(F)(F)F)nn1"
  Qualifier operator: "="
  microsomal CLint (µL/min/mg): 18.3
- Structure as smiles: "Nc1nonc1-c1nc2cccc(F)c2n1Cc1cnccn1"
  Qualifier operator: "="
  microsomal CLint (µL/min/mg): 21
- Structure as smiles: "CC(=O)Nc1nonc1-c1nc2ccccc2n1Cc1ccncc1"
  Qualifier operator: "="
  microsomal CLint (µL/min/mg): 34
- Structure as smiles: "Nc1nonc1-c1nc2c(F)ccc(F)c2n1Cc1cccnn1"
  Qualifier operator: "="
  microsomal CLint (µL/min/mg): 9.6
- Structure as smiles: "Nc1nonc1-c1nc2cccc(F)c2n1Cc1ccnnc1"
  Qualifier operator: "="
  microsomal CLint (µL/min/mg): 9.6
- Structure as smiles: "Nc1nonc1-c1nc2c(F)cccc2n1Cc1ccncc1"
  Qualifier operator: "="
  microsomal CLint (µL/min/mg): 25
- Structure as smiles: "Nc1nonc1-c1nc2ccccc2n1Cc1ccncc1"
  Qualifier operator: "="
  microsomal CLint (µL/min/mg): 24
- Structure as smiles: "Nc1nonc1-c1nc2cccc(F)c2n1Cc1cncnc1"
  Qualifier operator: "="
  microsomal CLint (µL/min/mg): 10
- Structure as smiles: "Nc1nonc1-c1nc2ccc(F)c(F)c2n1Cc1cccnn1"
  Qualifier operator: "<"
  microsomal CLint (µL/min/mg): 9.6
- Structure as smiles: "Nc1nonc1-c1nc2ccc(F)cc2n1Cc1ccncc1"
  Qualifier operator: "="
  microsomal CLint (µL/min/mg): 37
- Structure as smiles: "N#Cc1ccc(Cn2c(-c3nonc3N)nc3cccc(F)c32)nn1"
  Qualifier operator: "="
  microsomal CLint (µL/min/mg): 9.6
- Structure as smiles: "Cc1nonc1-c1nc2ccccc2n1Cc1ccncc1"
  Qualifier operator: "="
  microsomal CLint (µL/min/mg): 45

* * *

# Assay details: Volume of distribution at steady state in Cynomolgus monkey at 1 mg/kg, iv
# Assay type: ADME, organism-based, Macaca fascicularis
# Condition parameters: in vivo, read-out: Vdss

- Structure as smiles: "Nc1nonc1-c1nc2cccc(F)c2n1Cc1cccnn1"
  Vd / L/kg: 1.45

* * *

# Tested target: Potassium channel subfamily K member 13 (Homo sapiens, UniProt Q9HB14)
# Sequence (Q9HB14 whole entry): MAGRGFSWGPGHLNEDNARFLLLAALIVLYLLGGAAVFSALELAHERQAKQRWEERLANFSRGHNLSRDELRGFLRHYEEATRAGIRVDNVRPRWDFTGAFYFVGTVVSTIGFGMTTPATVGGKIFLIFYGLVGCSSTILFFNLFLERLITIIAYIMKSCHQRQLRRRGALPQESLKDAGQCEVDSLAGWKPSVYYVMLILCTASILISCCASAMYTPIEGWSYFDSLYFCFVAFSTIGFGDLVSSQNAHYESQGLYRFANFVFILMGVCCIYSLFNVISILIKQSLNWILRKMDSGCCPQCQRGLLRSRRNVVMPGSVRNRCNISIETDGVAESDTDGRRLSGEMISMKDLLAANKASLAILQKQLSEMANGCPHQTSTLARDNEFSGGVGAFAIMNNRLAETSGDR
# Assay details: Inhibition of human KCNK13 transfected in HEK293 cells assessed as reduction in thallium influx incubated for 15 mins in dark by FLIPR assay
# Format: cell-based
pIC50: −log10 of the molar value.

- Structure as smiles: "Nc1nonc1-c1nc2cccc(F)c2n1Cc1cccnn1"
  pIC50: 7.39

* * *

# Tested target: Potassium channel subfamily K member 13 (Mus musculus)
# Sequence (Q8R1P5 whole entry): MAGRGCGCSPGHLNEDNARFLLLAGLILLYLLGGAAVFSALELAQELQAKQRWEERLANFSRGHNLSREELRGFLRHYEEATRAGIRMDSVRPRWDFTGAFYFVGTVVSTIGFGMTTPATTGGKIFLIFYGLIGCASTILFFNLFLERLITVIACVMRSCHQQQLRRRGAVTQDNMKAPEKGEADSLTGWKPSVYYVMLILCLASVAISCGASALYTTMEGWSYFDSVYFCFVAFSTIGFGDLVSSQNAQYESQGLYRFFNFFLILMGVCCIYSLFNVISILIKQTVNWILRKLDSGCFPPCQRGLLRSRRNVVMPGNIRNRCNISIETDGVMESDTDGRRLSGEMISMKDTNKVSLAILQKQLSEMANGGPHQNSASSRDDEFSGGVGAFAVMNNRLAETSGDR
# Assay details: Inhibition of mouse KCNK13 transfected in HEK293 cells assessed as reduction in thallium influx incubated for 15 mins in dark by FLIPR assay
# Format: cell-based

- Structure as smiles: "Nc1nonc1-c1nc2cccc(F)c2n1Cc1cccnn1"
  IC50 (nM): 28

* * *

# Assay details: Metabolic stability in rat liver microsomes assessed as intrinsic clearance
# Format: ADME, Microsome
# Condition parameters: read-out: CLH
Label YES when microsomal CLint is strictly below 30 µL/min/mg; at or above that, label NO.

- Structure as smiles: "CC(=O)Nc1nonc1-c1nc2ccccc2n1Cc1ccncc1"
  Category: "NO"
- Structure as smiles: "Nc1nonc1-c1nc2cccc(F)c2n1Cc1ccncn1"
  Category: "NO"
- Structure as smiles: "Cc1nonc1-c1nc2ccccc2n1Cc1ccncc1"
  Category: "NO"
- Structure as smiles: "Nc1nonc1-c1nc2cccc(F)c2n1Cc1ccnnc1"
  Category: "NO"
- Structure as smiles: "N#Cc1ccc(Cn2c(-c3nonc3N)nc3cccc(F)c32)nn1"
  Category: "NO"
- Structure as smiles: "Nc1nonc1-c1nc2cc(F)ccc2n1Cc1ccncc1"
  Category: "YES"
- Structure as smiles: "Nc1nonc1-c1nc2cccc(F)c2n1Cc1ccncc1"
  Category: "YES"
- Structure as smiles: "Nc1nonc1-c1nc2c(F)cccc2n1Cc1ccncc1"
  Category: "YES"
- Structure as smiles: "Nc1nonc1-c1nc2ccc(F)c(F)c2n1Cc1cccnn1"
  Category: "YES"

* * *

# Assay details: C0 in Beagle dog at 1 mg/kg, iv
# Type: ADME, organism-based, Canis lupus familiaris
# Condition parameters: in vivo
Property measured: C0 (ng/mL)

- Structure as smiles: "Nc1nonc1-c1nc2cccc(F)c2n1Cc1cccnn1"
  Property measured: "C0"
  Reported value: 626

* * *

# Assay details: Cmax in Sprague-Dawley rat at 3 mg/kg, po
# Assay type: ADME, organism-based
# Condition parameters: in vivo
Property measured: Cmax (ng/mL)

- Structure as smiles: "Nc1nonc1-c1nc2cccc(F)c2n1Cc1cccnn1"
  Property measured: "Cmax"
  Reported value: 468

* * *

# Assay details: Unbound drug concentration in C57BL/6 mouse brain at 10 mg/kg, po measured after 4 hrs by LC-MS/MS analysis
# Format: ADME, organism-based
# Condition parameters: in vivo

- Structure as smiles: "Nc1nonc1-c1nc2cccc(F)c2n1Cc1cccnn1"
  Cp(f): "0.248 µM"
- Structure as smiles: "Nc1nonc1-c1nc2c(F)ccc(F)c2n1Cc1cccnn1"
  Cp(f): "0.63 µM"
- Structure as smiles: "Nc1nonc1-c1nc2cccc(F)c2n1Cc1cnccn1"
  Cp(f): "0.018 µM"
- Structure as smiles: "Nc1nonc1-c1nc2cccc(F)c2n1Cc1ccnnc1"
  Cp(f): "0.018 µM"
- Structure as smiles: "Nc1nonc1-c1nc2ccc(F)c(F)c2n1Cc1cccnn1"
  Cp(f): "0.056 µM"

* * *

# Assay details: Clearance in Cynomolgus monkey at 1 mg/kg, iv
# Format: ADME, organism-based, Macaca fascicularis
# Condition parameters: in vivo

- Structure as smiles: "Nc1nonc1-c1nc2cccc(F)c2n1Cc1cccnn1"
  clearance (mL/min/kg): 22

* * *

# Assay details: Unbound drug concentration in C57BL/6 mouse plasma at 10 mg/kg, po measured after 4 hrs by LC-MS/MS analysis
# Assay type: ADME, organism-based
# Condition parameters: in vivo

- Structure as smiles: "Nc1nonc1-c1nc2ccc(F)c(F)c2n1Cc1cccnn1"
  Cp(f) (nM): 80
- Structure as smiles: "Nc1nonc1-c1nc2cccc(F)c2n1Cc1cnccn1"
  Cp(f) (nM): 9
- Structure as smiles: "Nc1nonc1-c1nc2cccc(F)c2n1Cc1cccnn1"
  Cp(f) (nM): 372
- Structure as smiles: "Nc1nonc1-c1nc2cccc(F)c2n1Cc1ccnnc1"
  Cp(f) (nM): 9
- Structure as smiles: "Nc1nonc1-c1nc2c(F)ccc(F)c2n1Cc1cccnn1"
  Cp(f) (nM): 793

* * *

# Assay details: C0 in Sprague-Dawley rat at 0.5 mg/kg, iv
# Type: ADME, organism-based
# Condition parameters: in vivo
Property measured: C0 (ng/mL)

- Structure as smiles: "Nc1nonc1-c1nc2cccc(F)c2n1Cc1cccnn1"
  Reported value: 304

* * *

# Assay details: Tmax in Sprague-Dawley rat at 3 mg/kg, po
# Format: ADME, organism-based
# Condition parameters: in vivo
Property measured: Tmax (h)

- Structure as smiles: "Nc1nonc1-c1nc2cccc(F)c2n1Cc1cccnn1"
  Reported value: 1

* * *

# Assay details: Oral bioavailability in Cynomolgus monkey at 3 mg/kg
# Assay type: ADME, organism-based, Macaca fascicularis
# Condition parameters: in vivo
Property measured: bioavailability (%)

- Structure as smiles: "Nc1nonc1-c1nc2cccc(F)c2n1Cc1cccnn1"
  Property measured: "bioavailability"
  Reported value: 24

* * *

# Assay details: C0 in Cynomolgus monkey at 1 mg/kg, iv
# Assay type: ADME, organism-based, Macaca fascicularis
# Condition parameters: in vivo
Property measured: C0 (ng/mL)

- Structure as smiles: "Nc1nonc1-c1nc2cccc(F)c2n1Cc1cccnn1"
  Reported value: 896

* * *

# Assay details: AUC (0 to infinity) in Sprague-Dawley rat at 0.5 mg/kg, iv
# Format: ADME, organism-based
# Condition parameters: in vivo

- Structure as smiles: "Nc1nonc1-c1nc2cccc(F)c2n1Cc1cccnn1"
  Units: "ng·h/mL"
  AUC(0-inf): 222
